Here, each record is paired with measured pEC50 data.
# Test system: REH
# protocolText: Growth inhibition of human REH cells measured after 72 hrs by CellTiter-Glo reagent based assay
# Type: functional, cell-based
# runParameters: Homo sapiens, REH, 72 h; read-out: EC50
// field semantics: pEC50 = negative decimal log of concentration (mol/L)

[
  {
    "compound": "CSc1ccc(/C=C2/C(C)=C(C(C)C(=O)NCCN3CCNCC3)c3cc(F)ccc32)cc1 (configuration not stated)",
    "pEC50": 4.59
  }
]

Query block: So what's the measured pEC50 for this one? CSc1ccc(/C=C2/C(C)=C(C(C)C(=O)N(C)CCCN(C)C)c3cc(F)ccc32)cc1 (configuration not stated)
Result block: 4.42

Query block: Please give the result for CSc1ccc(/C=C2/C(C)=C(C(C)C(=O)NCCN3CCCC3)c3cc(F)ccc32)cc1 (configuration not stated) too.
Result block: 4.12

Query block: Please give the result for CCN(CCN(C)C)C(=O)C(C)C1=C(C)/C(=C/c2ccc(SC)cc2)c2ccc(F)cc21 (configuration not stated) too.
Result block: 5.00

Query block: Please give the result for COc1cc(/C=C2/C(C)=C(C(C)C(=O)NCc3ccccc3)c3cc(F)ccc32)cc(OC)c1OC (configuration not stated) too.
Result block: 5.15

Query block: Please give the result for CCN(CC)CCNC(=O)C(C)C1=C(C)/C(=C/c2ccc(SC)cc2)c2ccc(F)cc21 (configuration not stated) too.
Result block: 4.85

Query block: Please give the result for CSc1ccc(/C=C2/C(C)=C(C(C)C(=O)N3CCC[C@H]3CN3CCCC3)c3cc(F)ccc32)cc1 (some centres not stated) too.
Result block: 4.96

Origin of measurements: ChEMBL document CHEMBL4118188
